Can you tell me pIC50 for the items I'm about to list?
- Test system: HeLa
- Assay Notes: Antiproliferative activity against human HeLa cells after 72 hrs by MTT assay
- Type: functional, cell-based
Bear in mind: pIC50 is minus log10 of a mol/L concentration; give just that figure.

The compound COc1ccc(C(=O)N2CCN(c3cc4c(cc3F)c(=O)c(C(=O)O)cn4C3CC3)CC2)c(O)c1 on HeLa: pIC50 was 6.80

The compound CC[C@H](Nc1ncnc2[nH]cnc12)c1nc2cccc(F)c2c(=O)n1-c1ccccc1 [IDELALISIB] on HeLa: pIC50 was 6.82

The compound CCn1cc(C(=O)O)c(=O)c2cc(F)c(N3CCN(C(=O)c4c(C)cccc4O)CC3)cc21 on HeLa: pIC50 was 4.27

The compound O=C(O)c1cn(C2CC2)c2cc(N3CCN(C(=O)c4cc([N+](=O)[O-])ccc4O)CC3)c(F)cc2c1=O on HeLa: pIC50 was 4.59

The compound O=C(O)c1cn(C2CC2)c2cc(N3CCN(C(=O)c4cc(Cl)ccc4O)CC3)c(F)cc2c1=O on HeLa: pIC50 was 4.19

The compound CCn1cc(C(=O)O)c(=O)c2cc(F)c(N3CCN(C(=O)c4ccc(OC)nc4)CC3)cc21 on HeLa: pIC50 was 3.81

The compound O=C(O)c1cn(C2CC2)c2cc(N3CCN(C(=O)c4cc(Br)ccc4O)CC3)c(F)cc2c1=O on HeLa: pIC50 was 4.71

The compound CCn1cc(C(=O)O)c(=O)c2cc(F)c(N3CCN(C(=O)c4cc(OC)ccc4O)CC3)cc21 on HeLa: pIC50 was 5.68

The compound O=C(O)c1cn(C2CC2)c2cc(N3CCN(C(=O)c4cccnc4Cl)CC3)c(F)cc2c1=O on HeLa: pIC50 was 3.55

----------
- Target Of Assay: PI3-kinase p110-alpha/p85-alpha (Homo sapiens)
- Sequence (P27986 whole entry): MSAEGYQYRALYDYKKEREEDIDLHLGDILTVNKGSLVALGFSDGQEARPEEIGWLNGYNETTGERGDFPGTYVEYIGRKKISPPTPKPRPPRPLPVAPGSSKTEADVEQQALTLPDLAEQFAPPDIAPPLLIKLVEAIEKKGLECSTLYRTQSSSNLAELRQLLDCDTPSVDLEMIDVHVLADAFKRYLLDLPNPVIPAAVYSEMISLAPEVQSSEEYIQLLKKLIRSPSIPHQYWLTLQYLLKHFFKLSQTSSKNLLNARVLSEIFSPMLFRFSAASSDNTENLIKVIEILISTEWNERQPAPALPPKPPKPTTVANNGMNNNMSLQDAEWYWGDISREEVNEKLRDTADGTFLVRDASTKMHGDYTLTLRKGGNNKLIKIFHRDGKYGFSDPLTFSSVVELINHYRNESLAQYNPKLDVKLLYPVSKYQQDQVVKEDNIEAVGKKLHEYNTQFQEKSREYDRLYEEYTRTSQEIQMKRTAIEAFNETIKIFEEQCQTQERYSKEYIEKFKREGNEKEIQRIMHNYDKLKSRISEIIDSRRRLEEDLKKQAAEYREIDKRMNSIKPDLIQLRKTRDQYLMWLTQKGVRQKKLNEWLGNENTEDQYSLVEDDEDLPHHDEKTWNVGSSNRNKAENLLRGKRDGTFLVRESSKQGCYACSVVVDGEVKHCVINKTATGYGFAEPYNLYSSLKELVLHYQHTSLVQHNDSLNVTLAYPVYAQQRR
- Sequence (P42336 whole entry): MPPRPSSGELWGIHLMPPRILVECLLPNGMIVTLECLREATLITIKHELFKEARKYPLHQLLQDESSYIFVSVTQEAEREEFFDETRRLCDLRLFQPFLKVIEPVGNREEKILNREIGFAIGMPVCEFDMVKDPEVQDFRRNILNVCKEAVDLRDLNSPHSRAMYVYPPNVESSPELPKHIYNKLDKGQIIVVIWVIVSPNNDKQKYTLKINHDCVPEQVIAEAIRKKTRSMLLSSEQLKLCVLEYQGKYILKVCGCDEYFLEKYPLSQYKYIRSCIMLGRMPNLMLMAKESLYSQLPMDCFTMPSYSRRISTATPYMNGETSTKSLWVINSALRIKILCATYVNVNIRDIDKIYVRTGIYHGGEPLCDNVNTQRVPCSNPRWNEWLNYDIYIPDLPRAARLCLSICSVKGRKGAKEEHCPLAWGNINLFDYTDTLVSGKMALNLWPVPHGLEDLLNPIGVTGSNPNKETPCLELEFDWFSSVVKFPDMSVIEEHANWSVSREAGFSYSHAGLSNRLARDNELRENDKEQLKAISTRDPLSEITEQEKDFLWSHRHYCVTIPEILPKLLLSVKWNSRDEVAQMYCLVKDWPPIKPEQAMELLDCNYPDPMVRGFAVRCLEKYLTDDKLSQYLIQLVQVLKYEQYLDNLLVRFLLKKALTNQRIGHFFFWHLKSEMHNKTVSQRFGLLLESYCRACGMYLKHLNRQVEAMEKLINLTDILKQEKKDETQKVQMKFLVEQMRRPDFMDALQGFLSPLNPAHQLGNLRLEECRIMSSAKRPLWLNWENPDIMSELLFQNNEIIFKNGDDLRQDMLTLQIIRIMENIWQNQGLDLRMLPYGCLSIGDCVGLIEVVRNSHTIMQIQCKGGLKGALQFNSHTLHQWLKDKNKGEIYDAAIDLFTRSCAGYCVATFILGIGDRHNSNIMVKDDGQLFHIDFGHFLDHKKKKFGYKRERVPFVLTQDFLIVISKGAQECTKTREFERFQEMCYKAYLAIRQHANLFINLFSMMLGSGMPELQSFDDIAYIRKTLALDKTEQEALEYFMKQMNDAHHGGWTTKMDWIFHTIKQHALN
- Assay Notes: Inhibition of human PI3K p110alpha/p85alpha by fluorescence-based immunoassay
Can you tell me IC50 for the items I'm about to list?
Give the value, in units of nM, as a plain number.

Entry CCn1cc(C(=O)O)c(=O)c2cc(F)c(N3CCN(C(=O)c4cc(OC)ccc4O)CC3)cc21 , IC50 reported as 698

Entry COc1ccc(C(=O)N2CCN(c3cc4c(cc3F)c(=O)c(C(=O)O)cn4C3CC3)CC2)c(O)c1 , IC50 reported as 642

Entry CCn1cc(C(=O)O)c(=O)c2cc(F)c(N3CCN(C(=O)c4cc(Cl)ccc4O)CC3)cc21 , IC50 reported as 712
